conditions: spirolactone dyes; table title says PBS, text (b560-b564) says maximal ε when ring-opened in EtOH/0.1% TFA
Catalogue of ε (M^−1 cm^−1) values

> print(dat)
                                   compound        result.value
1  CN(C)c1ccc2c(c1)[Si@](C)(CCCN=[N+]=[N-])c1cc(N(C)C)ccc1[C@]21OC(=O)c2ccccc21 [Compound 053]  206,700 M^−1 cm^−1
2  C[Si]1(C)c2cc(N3CCC3)ccc2C2(OC(=O)c3ccccc32)c2ccc(N3CCC3)cc21 [Compound 031, reference compound]  156,000 M^−1 cm^−1
3  CN(C)c1ccc2c(c1)[Si@](C)(CCCSCC(=O)O)c1cc(N(C)C)ccc1[C@@]21OC(=O)c2ccccc21 [Compound 064]  160,400 M^−1 cm^−1
4  CN(C)c1ccc2c(c1)[Si](C)(C)c1cc(N(C)C)ccc1C21OC(=O)c2ccccc21 [Compound 032, reference compound]  130,000 M^−1 cm^−1

Okay, now this compound:
Value of ε (M^−1 cm^−1) reported for the compound CCOC(=O)CSCCC[Si@]1(C)c2cc(N(C)C)ccc2[C@@]2(OC(=O)c3ccccc32)c2ccc(N(C)C)cc21 [Compound 043] is 150,700 M^−1 cm^−1
